Target: Glutamate NMDA receptor
Assay: Inhibition of [3H]MK-801 binding to NMDA receptor of adult Wistar rat brain cortical membranes
Format: cell membranes, Membrane
pIC50: −log10 of the molar value.
result_type: pIC50

mol=N[C@H](CC(=O)c1ccccn1)C(=O)O reported_measurement=~3.52

====

Target: Glutamate NMDA receptor
Assay: Inhibition of [3H]MK-801 binding to NMDA receptor of adult Wistar rat brain cortical membranes: Range 50-500
Assay type: cell membranes, Membrane
result_type: IC50

mol=N[C@H](CC(=O)c1cccs1)C(=O)O reported_measurement="< 500 µM"
